assay-setup: in n-propanol, 328.15 K
assay-readout: solubility (mole fraction)
Lab note: jot down the number only; don't add units.

Ask | Can you look up the measured solubility (mole fraction) of O=C(O)CNC(=O)c1ccccc1 for me?
Reply | 0.0232

----------
assay-setup: in methanol, 323.15 K
assay-readout: solubility (mole fraction)
No unit in the answer, please; the number alone is enough.

Ask | Which solubility (mole fraction) value belongs to O=C(O)CNC(=O)c1ccccc1 ?
Reply | 0.0378

----------
assay-setup: in chloroform, 318.15 K
assay-readout: solubility (mole fraction)
Give the figure by itself; no unit, no explanation.

Ask | Given the molecule O=C(O)CNC(=O)c1ccccc1 , what is its reported solubility (mole fraction)?
Reply | 0.00088
